# tested on: T1, recombinant SARS-CoV-2 Spike RBD domain, BA.2.75.2 variant (SARS-CoV-2)
# T1 construct: also called RBD BA.2.75.2 variant
# protocol text: ELISA on coated RBD
reported endpoint: Binding AUC
Respond using a number only.

| binder | recorded number |
| --- | --- |
| SPK002M B1 antibody (antibody, human IgG1, kappa, V domains shown) VH: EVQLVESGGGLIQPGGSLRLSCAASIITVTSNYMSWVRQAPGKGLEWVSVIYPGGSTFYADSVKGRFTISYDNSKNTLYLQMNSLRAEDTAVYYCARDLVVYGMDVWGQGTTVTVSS VL: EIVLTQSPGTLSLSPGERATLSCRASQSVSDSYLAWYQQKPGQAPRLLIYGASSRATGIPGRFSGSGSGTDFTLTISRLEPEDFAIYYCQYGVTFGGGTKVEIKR | 30 |
| SPK002M A4 antibody (antibody, human IgG1, kappa, V domains shown) VH: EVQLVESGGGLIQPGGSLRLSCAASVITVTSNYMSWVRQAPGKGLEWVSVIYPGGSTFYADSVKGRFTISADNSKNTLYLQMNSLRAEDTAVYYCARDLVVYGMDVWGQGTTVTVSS VL: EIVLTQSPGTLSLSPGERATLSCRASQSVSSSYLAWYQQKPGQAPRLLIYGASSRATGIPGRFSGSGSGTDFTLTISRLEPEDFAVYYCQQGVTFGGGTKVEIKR | 34 |
| SPK002M A2 antibody (antibody, human IgG1, kappa, V domains shown) VH: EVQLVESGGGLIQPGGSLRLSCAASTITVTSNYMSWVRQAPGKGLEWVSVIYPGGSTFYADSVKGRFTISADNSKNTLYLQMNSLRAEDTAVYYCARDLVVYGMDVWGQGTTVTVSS VL: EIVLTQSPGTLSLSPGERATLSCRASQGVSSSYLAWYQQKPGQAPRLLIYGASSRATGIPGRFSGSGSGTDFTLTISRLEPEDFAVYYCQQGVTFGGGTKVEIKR | 34 |

Now examine the next entry.
Problem: What value of Binding AUC has been recorded for this entry: SPK002M A3 antibody (antibody, human IgG1, kappa, V domains shown) VH: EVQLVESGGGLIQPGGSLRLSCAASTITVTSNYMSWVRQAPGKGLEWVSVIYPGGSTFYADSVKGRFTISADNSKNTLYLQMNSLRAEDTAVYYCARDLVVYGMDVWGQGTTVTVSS VL: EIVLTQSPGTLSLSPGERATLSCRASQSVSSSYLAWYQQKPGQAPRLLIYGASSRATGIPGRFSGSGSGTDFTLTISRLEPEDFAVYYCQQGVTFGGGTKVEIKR
Solution: 34
